Each record here notes measured Plant response rating, Soybean.
# System: soybean
# Assay Details: Test C preemergence
# Type: in vivo, Glycine max
# Run Conditions: Preemergence, 500 g ai/ha; visual rating after 10 days, 0 to 100 scale (0 no effect, 100 complete control)
Answer with the value's number alone.

[
  {
    "Molecule": "Cc1ccc(-n2cnc(C3(C(F)(F)F)CC3)n2)cc1C(=O)N1C[C@H](C)Oc2c(Cl)cccc21",
    "Experimental Result": 90
  }
]

[Q] Fill blank: measured Plant response rating, Soybean of the molecule Cc1ccc(-n2cnc(C3CCC3)n2)cc1C(=O)N1CC(C(F)(F)F)Oc2c(Cl)cccc21 (single isomer, unassigned) is ____.
[A] 90

[Q] Which Plant response rating, Soybean is listed for C[C@H]1CN(C(=O)c2cc(-n3cnc(C(C)(C)C)n3)cc3c2OCCO3)c2cccc(Cl)c2O1 ?
[A] 100

[Q] What does the data say about its Plant response rating, Soybean? Entry: CCc1ncn(-c2cc3c(c(C(=O)N4C[C@H](C)Oc5c(Cl)cccc54)c2)OCCO3)n1
[A] 100

Values were extracted from patent US20260262643A1.
